- system-tested: Phosphatidylinositol 4,5-bisphosphate 3-kinase catalytic subunit delta isoform (Homo sapiens, UniProt O00329)
- Sequence (O00329 whole entry): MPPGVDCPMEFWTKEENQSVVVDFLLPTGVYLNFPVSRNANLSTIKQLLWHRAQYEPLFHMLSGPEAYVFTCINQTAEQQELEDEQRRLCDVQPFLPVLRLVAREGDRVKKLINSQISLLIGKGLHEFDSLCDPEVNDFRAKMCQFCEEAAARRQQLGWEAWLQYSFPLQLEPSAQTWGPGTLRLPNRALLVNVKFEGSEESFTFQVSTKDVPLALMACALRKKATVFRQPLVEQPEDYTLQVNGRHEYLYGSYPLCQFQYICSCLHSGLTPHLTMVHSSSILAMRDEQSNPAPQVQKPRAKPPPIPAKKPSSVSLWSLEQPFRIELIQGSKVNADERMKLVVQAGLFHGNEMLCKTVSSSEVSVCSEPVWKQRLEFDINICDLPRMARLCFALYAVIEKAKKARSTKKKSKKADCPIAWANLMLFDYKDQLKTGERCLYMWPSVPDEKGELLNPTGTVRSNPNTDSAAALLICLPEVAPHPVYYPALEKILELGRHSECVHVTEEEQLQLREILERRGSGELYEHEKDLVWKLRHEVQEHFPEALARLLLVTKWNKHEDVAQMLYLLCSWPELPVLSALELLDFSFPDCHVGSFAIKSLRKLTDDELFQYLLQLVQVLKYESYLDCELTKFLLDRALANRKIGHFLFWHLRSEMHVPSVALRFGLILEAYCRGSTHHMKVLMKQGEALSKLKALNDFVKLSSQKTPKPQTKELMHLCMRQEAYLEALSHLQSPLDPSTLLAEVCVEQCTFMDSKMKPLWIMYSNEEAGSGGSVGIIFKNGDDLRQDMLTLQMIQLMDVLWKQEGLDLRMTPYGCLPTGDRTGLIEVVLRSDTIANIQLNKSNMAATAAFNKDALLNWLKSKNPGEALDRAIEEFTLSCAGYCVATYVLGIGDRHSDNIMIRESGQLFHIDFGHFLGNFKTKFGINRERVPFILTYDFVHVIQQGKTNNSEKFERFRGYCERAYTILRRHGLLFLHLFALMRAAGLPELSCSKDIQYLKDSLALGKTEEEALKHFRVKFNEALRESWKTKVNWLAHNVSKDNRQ
- protocol-notes: Inhibition of PI3Kdelta (unknown origin) assessed as formation of PIP3 by competitive fluorescence polarization assay
- particulars: read-out: Ki(app)
pKi: −log10 of the molar value.

smiles-text: CCc1nc2ccccc2n1-c1nc(N2CCOCC2)c2nc(CC3CN(C(=O)C(C)C)C3)n(C)c2n1
pKi: 9.44
//
smiles-text: CCc1nc2ccccc2n1-c1nc(N2CCOCC2)c2nc(NC3CN(C(=O)C(C)C)C3)n(C)c2n1
pKi: 9.06
//
smiles-text: CCc1nc2ccccc2n1-c1nc(N2CCOCC2)c2nc(C(=O)N3CCN(C(C)(C)C(N)=O)CC3)n(C)c2n1
pKi: 9.10

* * *

- protocol-notes: Oral bioavailability in rat at 5 mg/kg
- Format: ADME, organism-based
- particulars: in vivo
outcome-measure: bioavailability (%)

smiles-text: CC(C)c1nc2ccccc2n1-c1nc(N2CCOCC2)c2nc(OC3CN(C4CCS(=O)(=O)CC4)C3)n(C)c2n1
outcome-measure: bioavailability
reported-result: 96.2

* * *

- protocol-notes: Clearance in rat at 1 mg/kg, iv
- Assay type: ADME, organism-based
- Set-up: dose 1 mg/kg, route intravenous
- particulars: in vivo
Some molecules, each annotated with its measured clearance.
outcome-measure: clearance

smiles-text: CCc1nc2ccccc2n1-c1nc(N2CCOCC2)c2nc(CC3CN(C4CCS(=O)(=O)CC4)C3)n(C)c2n1
outcome-measure: clearance
reported-result: 63 mL/min/kg
//
smiles-text: CC(C)c1nc2ccccc2n1-c1nc(N2CCOCC2)c2nc(OC3CN(C4CCS(=O)(=O)CC4)C3)n(C)c2n1
outcome-measure: clearance
reported-result: 19.4 mL/min/kg

* * *

- protocol-notes: AUC in dog at 2 mg/kg, po
- Assay type: ADME, organism-based, Canis lupus familiaris
- Parameters: dose 2 mg/kg, route oral
- particulars: plasma
outcome-measure: AUC (µM·h)

smiles-text: CC(C)c1nc2ccccc2n1-c1nc(N2CCOCC2)c2nc(OC3CN(C4CCS(=O)(=O)CC4)C3)n(C)c2n1
outcome-measure: AUC
reported-result: 21.1

* * *

- protocol-notes: Cmax in rat at 5 mg/kg, po
- Format: ADME, organism-based
- Parameters: dose 5 mg/kg, route oral
- particulars: in vivo

smiles-text: CC(C)c1nc2ccccc2n1-c1nc(N2CCOCC2)c2nc(OC3CN(C4CCS(=O)(=O)CC4)C3)n(C)c2n1
Cmax, nM: 1180

* * *

- protocol-notes: Volume of distribution at steady state in dog at 1 mg/kg, iv
- Assay type: ADME, organism-based, Canis lupus familiaris
- Set-up: dose 1 mg/kg, route intravenous
- particulars: in vivo, read-out: Vdss

smiles-text: CC(C)c1nc2ccccc2n1-c1nc(N2CCOCC2)c2nc(OC3CN(C4CCS(=O)(=O)CC4)C3)n(C)c2n1
Vd, L/kg: 2.2

* * *

- protocol-notes: Genotoxicity in human lymphocytes assessed as chromosome aberration
- Assay type: toxicity, cell-based
- particulars: lymphocyte
outcome-measure: Activity

smiles-text: Cn1c(CN2CCC(C(C)(C)O)CC2)nc2c(N3CCOCC3)nc(-n3c(C4CC4)nc4ccccc43)nc21
reported-result: Toxic
//
smiles-text: CCc1nc2ccccc2n1-c1nc(N2CCOCC2)c2nc(CN3CCC(C(C)(C)O)CC3)n(C)c2n1
reported-result: Toxic
//
smiles-text: CC(C)c1nc2ccccc2n1-c1nc(N2CCOCC2)c2nc(CN3CCC(C(C)(C)O)CC3)n(C)c2n1
reported-result: Toxic
//
smiles-text: CC(C)(O)C1CCN(Cc2cc3nc(-c4cccc5[nH]ncc45)nc(N4CCOCC4)c3s2)CC1
reported-result: Non-toxic
//
smiles-text: Cc1nc2ccccc2n1-c1nc(N2CCOCC2)c2nc(CN3CCC(C(C)(C)O)CC3)n(C)c2n1
reported-result: Toxic
//
smiles-text: CCc1nc2ccccc2n1-c1nc(N2CCOCC2)c2sc(CN3CCC(C(C)(C)O)CC3)cc2n1
reported-result: Non-toxic

* * *

- system-tested: Phosphatidylinositol 4,5-bisphosphate 3-kinase catalytic subunit delta isoform (Homo sapiens)
- Sequence (O00329 whole entry): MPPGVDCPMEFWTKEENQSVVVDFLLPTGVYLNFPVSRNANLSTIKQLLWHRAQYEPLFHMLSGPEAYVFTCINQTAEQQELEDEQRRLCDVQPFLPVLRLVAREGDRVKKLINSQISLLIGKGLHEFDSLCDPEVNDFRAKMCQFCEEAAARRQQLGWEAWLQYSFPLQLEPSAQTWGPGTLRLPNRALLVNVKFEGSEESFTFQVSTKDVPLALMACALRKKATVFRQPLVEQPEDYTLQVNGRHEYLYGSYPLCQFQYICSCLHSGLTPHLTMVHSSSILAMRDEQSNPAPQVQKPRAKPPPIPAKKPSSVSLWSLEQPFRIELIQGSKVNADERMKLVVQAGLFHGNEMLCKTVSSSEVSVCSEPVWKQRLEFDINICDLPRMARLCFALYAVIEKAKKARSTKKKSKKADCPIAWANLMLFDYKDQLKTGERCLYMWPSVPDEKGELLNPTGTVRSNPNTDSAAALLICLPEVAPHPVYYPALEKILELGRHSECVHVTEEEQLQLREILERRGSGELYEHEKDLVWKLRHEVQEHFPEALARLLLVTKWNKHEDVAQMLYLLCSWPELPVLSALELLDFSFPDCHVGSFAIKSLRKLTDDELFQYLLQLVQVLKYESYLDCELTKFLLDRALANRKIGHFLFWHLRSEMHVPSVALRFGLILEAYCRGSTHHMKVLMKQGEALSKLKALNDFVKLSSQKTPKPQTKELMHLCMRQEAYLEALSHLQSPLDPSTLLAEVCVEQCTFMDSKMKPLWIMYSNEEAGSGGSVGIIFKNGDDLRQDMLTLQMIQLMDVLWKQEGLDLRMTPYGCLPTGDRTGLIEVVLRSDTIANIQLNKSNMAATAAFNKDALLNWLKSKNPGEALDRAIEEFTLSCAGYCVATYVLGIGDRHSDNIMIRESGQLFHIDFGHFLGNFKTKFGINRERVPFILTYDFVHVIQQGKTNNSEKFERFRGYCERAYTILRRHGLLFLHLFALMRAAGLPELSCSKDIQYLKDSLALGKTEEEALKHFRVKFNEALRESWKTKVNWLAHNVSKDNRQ
- protocol-notes: Inhibition of PI3Kdelta in human whole blood assessed as expression of CD69 in B cell preincubated for 1 hr by flow cytometry
- Type: tissue-based
Note to self: IC50 under 10 nM means yes (1), ties and anything higher get no (0).

smiles-text: CCc1nc2ccccc2n1-c1nc(N2CCOCC2)c2nc(N(C)C3CN(C4CCS(=O)(=O)CC4)C3)n(C)c2n1
assigned-label: yes (1)

smiles-text: CCc1nc2ccccc2n1-c1nc(N2CCOCC2)c2nc(CC3CN(C4CCS(=O)(=O)CC4)C3)n(C)c2n1
assigned-label: yes (1)

smiles-text: CC(C)c1nc2ccccc2n1-c1nc(N2CCOCC2)c2nc(OC3CN(C4CCS(=O)(=O)CC4)C3)n(C)c2n1
assigned-label: yes (1)

smiles-text: CCc1nc2ccccc2n1-c1nc(N2CCOCC2)c2nc(C(=O)N3CCC(C(C)(C)O)CC3)n(C)c2n1
assigned-label: no (0)

smiles-text: CCc1nc2ccccc2n1-c1nc(N2CCOCC2)c2nc(NC3CN(C4CCS(=O)(=O)CC4)C3)n(C)c2n1
assigned-label: no (0)
